Measured inhibition, listed per entry for reference.
Target: Testis-specific serine/threonine-protein kinase 1 (Homo sapiens);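 note: mean percent inhibition of TSSK1, from the GSK PKIS screening dataset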
Sequence (whole entry): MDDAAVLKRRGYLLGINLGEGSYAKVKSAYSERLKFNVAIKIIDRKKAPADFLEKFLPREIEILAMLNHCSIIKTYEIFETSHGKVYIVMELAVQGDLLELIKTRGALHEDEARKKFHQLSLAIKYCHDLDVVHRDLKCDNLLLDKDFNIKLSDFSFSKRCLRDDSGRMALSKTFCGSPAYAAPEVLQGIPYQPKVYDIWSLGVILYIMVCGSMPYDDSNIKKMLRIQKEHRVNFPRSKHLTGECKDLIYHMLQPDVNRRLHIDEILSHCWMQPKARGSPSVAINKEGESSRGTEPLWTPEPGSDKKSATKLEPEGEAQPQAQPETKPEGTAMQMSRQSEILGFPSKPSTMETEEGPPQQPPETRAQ
Conditions: at 0.1 µM
Quick reminder: number only, in %, skip the unit.

Recorded inhibition, per entry:
1) COc1cc(N2CCN(C(C)C)CC2)ccc1Nc1nc(Nc2ccc(F)cc2C(N)=O)c2cc[nH]c2n1	82.8
2) [O-][S+]1CCN(Cc2ccc(-c3ccc4ncnc(Nc5ccc(OCc6cccc(F)c6)c(Cl)c5)c4c3)o2)CC1	5.74
3) COC(=O)Nc1nc2ccc(S(=O)(=O)c3ccc(NC(=O)Nc4cc(C(F)(F)F)ccc4F)cc3)cc2[nH]1	2.57
4) CCCN(CCS(C)(=O)=O)Cc1ccc(-c2ccc3ncnc(Nc4ccc(OCc5cccc(F)c5)c(Cl)c4)c3c2)o1	2.58
5) CCn1c(-c2nonc2N)nc2cnc(Oc3cccc(NC(=O)c4ccc(N(C)C)cc4)c3)cc21	10.9

Prompt: Give the reported value of inhibition for this record: COc1ccc(-c2nn3ncccc3c2-c2ccnc(Nc3ccc4c(c3)OCCO4)n2)cc1
Completion: -0.54

Prompt: Let me know recorded inhibition for CCNC(=O)O[C@H]1CN[C@H](C#Cc2cc3ncnc(Nc4ccc(OCc5cccc(F)c5)c(Cl)c4)c3s2)C1 , thanks.
Completion: 2.93

Prompt: Hello, please tell me recorded inhibition for this one: COc1ccc(-c2oc3ncnc(N)c3c2-c2ccc(NC(=O)Nc3cc(C(F)(F)F)ccc3F)cc2)cc1
Completion: 4.93

Prompt: Quick one: give measured inhibition for FC(F)(F)c1cccc(-c2nn3ncccc3c2-c2ccnc(Nc3ccc4c(c3)OCCO4)n2)c1
Completion: 2.75

Prompt: Consider the molecule CCOc1ccc2c(-c3ccnc(Nc4cccc(C(F)(F)F)c4)n3)cnn2n1 and give its recorded inhibition.
Completion: 2.69

Prompt: Look up and report measured inhibition for this entry: NS(=O)(=O)c1ccc(N/N=C2\C(=O)Nc3ccc4ncccc4c32)cc1
Completion: 5.63

Prompt: Give the measured inhibition for Nc1ncc(-c2cccc(S(N)(=O)=O)c2)c2scc(-c3ccc(F)c(Cl)c3)c12
Completion: 3.24

Prompt: Respond only with inhibition recorded for Fc1ccc(-c2nn3ccccc3c2-c2ccncc2)cc1
Completion: 1.12

Prompt: Using the record for CC1=C(C(=O)Nc2cc(Cl)c3[nH]ncc3c2)C(c2ccc(C(F)(F)F)cc2)CC(=O)N1 (stereo not drawn) , state its measured inhibition.
Completion: 3.52

----------
Each entry below lists one item and its recorded inhibition value.
Biological target: Ephrin type-A receptor 2 (Homo sapiens) (UniProt P29317);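 note: reported values are mean percent inhibition of EPHA2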
Sequence (P29317 whole entry): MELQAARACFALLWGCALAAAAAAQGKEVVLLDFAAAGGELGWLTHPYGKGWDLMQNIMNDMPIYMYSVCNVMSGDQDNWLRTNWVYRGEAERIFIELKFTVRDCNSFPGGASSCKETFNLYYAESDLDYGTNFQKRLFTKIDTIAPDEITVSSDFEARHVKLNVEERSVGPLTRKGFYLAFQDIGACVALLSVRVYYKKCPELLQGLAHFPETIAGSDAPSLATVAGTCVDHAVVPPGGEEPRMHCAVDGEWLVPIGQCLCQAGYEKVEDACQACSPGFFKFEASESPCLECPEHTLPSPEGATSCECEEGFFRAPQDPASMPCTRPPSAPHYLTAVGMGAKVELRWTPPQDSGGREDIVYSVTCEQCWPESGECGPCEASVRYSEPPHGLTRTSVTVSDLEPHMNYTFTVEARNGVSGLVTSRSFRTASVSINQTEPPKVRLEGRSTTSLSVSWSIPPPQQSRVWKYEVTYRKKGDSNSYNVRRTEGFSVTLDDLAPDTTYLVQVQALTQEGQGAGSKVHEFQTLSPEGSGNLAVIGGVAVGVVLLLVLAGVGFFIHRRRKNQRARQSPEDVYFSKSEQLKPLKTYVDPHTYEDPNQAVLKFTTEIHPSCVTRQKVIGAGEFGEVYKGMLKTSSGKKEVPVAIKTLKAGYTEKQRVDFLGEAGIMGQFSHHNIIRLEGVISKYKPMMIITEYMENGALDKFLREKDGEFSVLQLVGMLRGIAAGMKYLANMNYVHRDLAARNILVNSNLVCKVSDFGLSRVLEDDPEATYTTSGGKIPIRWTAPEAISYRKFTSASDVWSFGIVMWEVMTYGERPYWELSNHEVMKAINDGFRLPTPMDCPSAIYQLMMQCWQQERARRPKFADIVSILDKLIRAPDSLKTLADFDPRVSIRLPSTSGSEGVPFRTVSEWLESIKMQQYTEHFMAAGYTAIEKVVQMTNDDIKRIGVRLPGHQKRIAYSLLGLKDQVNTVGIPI
Settings: at 0.1 µM
# number only, unit % dropped from output

1. COc1cc(Nc2nccc(Nc3ccc4c(C)n[nH]c4c3)n2)cc(OC)c1OC	28
2. CC(C)COC(=O)c1ccc2c(c1)/C(=C/Nc1ccc(S(N)(=O)=O)cc1)C(=O)N2	-3.29
3. COc1cccc(-n2ncc3c(N/N=C/c4ccc(F)cc4)ncnc32)c1	4.28
4. O=C(O[C@H]1CN[C@H](C#Cc2cc3ncnc(Nc4ccc(Cc5ccccc5)cc4)c3s2)C1)N1CCOCC1	-0.49
5. CNC(=O)c1cccc(C#Cc2cncnc2Nc2ccc(OCc3cccc(F)c3)c(Cl)c2)c1	2.11

In the following, a different compound is considered.
Prompt: State, in one line, measured inhibition of COC(=O)Nc1nc2ccc(S(=O)(=O)c3ccc(NC(=O)Nc4cc(C(F)(F)F)ccc4F)cc3)cc2[nH]1
Completion: 2.49

----------
Molecular target: Phosphorylase b kinase gamma catalytic chain, liver/testis isoform (Homo sapiens);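 note: reported value is the mean inhibition of PHKG2 from the GSK_PKIS screening set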
Details: at 1 µM
Category | rule: reported inhibition within range, see class 0 (below 2%), class 1 (2% to below 6%), class 2 (6% or more)

1) CCNC(=O)O[C@H]1CN[C@H](C#Cc2cc3ncnc(Nc4ccc(OCc5cccc(F)c5)c(Cl)c4)c3s2)C1	class 0
2) Nc1nc(-c2ccc(F)cc2)c(-c2ccc3ncccc3n2)s1	class 1
3) CC1=C(C(=O)Nc2cc(Cl)c3[nH]ncc3c2)C(c2ccc(C(F)(F)F)cc2)CC(=O)N1 (centres undefined)	class 1
4) N#Cc1c(NC(=O)CN2CCOCC2)sc2c1CCCC2	class 2
5) NS(=O)(=O)c1ccc(Nc2ncc(-c3ccccc3)o2)cc1	class 2

Prompt: Hi, small favor: classify COc1cc2c(cc1Nc1nc(Nc3ccsc3C(N)=O)c3cc[nH]c3n1)N(C(=O)CN(C)C)CCC2(C)C by its inhibition when you get a moment.
Completion: class 2

Prompt: Into which category would you place O=C(Nc1n[nH]c2cc(-c3ccc(F)cc3)ccc12)C1CC1 ?
Completion: class 1

Prompt: Kindly identify the class of COC(=O)Nc1nc2ccc(S(=O)(=O)c3ccc(NC(=O)Nc4cc(C(F)(F)F)ccc4F)cc3)cc2[nH]1 .
Completion: class 0

Prompt: Could you place NC(=O)c1sc(-n2cnc3ccc(C(F)(F)F)cc32)cc1OCc1ccccc1Br in its proper category? Many thanks.
Completion: class 1

----------
Attribute: inhibition
Target: Ephrin type-A receptor 3 (Homo sapiens);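 note: values are mean inhibition of EPHA3, from the GSK PKIS dataset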
Conditions: at 0.1 µM
Write the answer as a number in %, unit excluded.

A selection of reference data follows.
1. Nc1ncc(-c2cccc(S(N)(=O)=O)c2)c2scc(-c3ccc(F)c(Cl)c3)c12	27.4
2. CC(C)COC(=O)c1ccc2c(c1)/C(=C/Nc1ccc(S(N)(=O)=O)cc1)C(=O)N2	-2.74
3. NS(=O)(=O)c1ccc(N/N=C2\C(=O)Nc3ccc4ncccc4c32)cc1	5.42
4. N#Cc1c(NC(=O)c2ccc(F)cc2)sc2c1CCCC2	1.47
5. COc1cc(N2CCN(C(C)C)CC2)ccc1Nc1nc(Nc2ccc(F)cc2C(N)=O)c2cc[nH]c2n1	1.78

Prompt: // Input: COC(=O)c1sc(-n2cnc3cc(OC)c(OC)cc32)cc1OCc1ccccc1C(F)(F)F . Output its inhibition only.
Completion: 4.53

Prompt: Supply recorded inhibition for CCn1c(-c2nonc2N)nc2ccccc21 here.
Completion: 5.44

Prompt: Complete the entry with inhibition for CN1CCC(n2cnc(-c3ccc(F)cc3)c2-c2ccnc(Nc3ccccc3)n2)CC1
Completion: 1.78

Prompt: Complete the entry with inhibition for CS(=O)(=O)CCNCc1coc(-c2ccc3ncnc(Nc4ccc(OCc5ccccc5)cc4)c3c2)c1
Completion: 7.79

Prompt: Determine from records and report inhibition for COc1cccc(-c2c[nH]c3c(N/N=C/c4ccncc4)ncnc23)c1
Completion: 3.44

----------
Target: Protein kinase C alpha type (Homo sapiens) (UniProt P17252);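 note: each value is the mean percent inhibition of PKC-alpha kinase activity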
Details: at 0.1 µM
reported-metric: inhibition (%)
Number only, in %; omit the unit.

Below, each entry is followed by its recorded inhibition result.
1. Cc1ccc(O)cc1Nc1ccnc2cc(-c3ccccn3)ccc12	0.94
2. c1ccc(COc2ccc(Nc3ncnc4ccc(-c5ccco5)cc34)cc2)cc1	-0.04
3. CN(C)CCOc1ccc(-c2nc(-c3ccncc3)c(-c3ccc4c(c3)CC/C4=N\O)[nH]2)cc1	0.58

Prompt: Give recorded inhibition. COc1ccc(-c2cc(-c3c[nH]nc3-c3ccccn3)ccn2)cc1
Completion: 0.46

Prompt: Specify measured inhibition for N#Cc1c(NC(=O)c2ccc(F)cc2)sc2c1CCCC2 .
Completion: 0.43

Prompt: Note inhibition for the compound shown: CN1CCC(n2cnc(-c3ccc(F)cc3)c2-c2ccnc(N)n2)CC1
Completion: 1.23

----------
Listed here: items and their measured inhibition.
Target: Serine/threonine-protein kinase D3 (Homo sapiens) (UniProt O94806);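 note: each value is the mean of inhibition readings, from a kinase profiling panel run on the GSK PKIS inhibitor collection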
Sequence (O94806 whole entry): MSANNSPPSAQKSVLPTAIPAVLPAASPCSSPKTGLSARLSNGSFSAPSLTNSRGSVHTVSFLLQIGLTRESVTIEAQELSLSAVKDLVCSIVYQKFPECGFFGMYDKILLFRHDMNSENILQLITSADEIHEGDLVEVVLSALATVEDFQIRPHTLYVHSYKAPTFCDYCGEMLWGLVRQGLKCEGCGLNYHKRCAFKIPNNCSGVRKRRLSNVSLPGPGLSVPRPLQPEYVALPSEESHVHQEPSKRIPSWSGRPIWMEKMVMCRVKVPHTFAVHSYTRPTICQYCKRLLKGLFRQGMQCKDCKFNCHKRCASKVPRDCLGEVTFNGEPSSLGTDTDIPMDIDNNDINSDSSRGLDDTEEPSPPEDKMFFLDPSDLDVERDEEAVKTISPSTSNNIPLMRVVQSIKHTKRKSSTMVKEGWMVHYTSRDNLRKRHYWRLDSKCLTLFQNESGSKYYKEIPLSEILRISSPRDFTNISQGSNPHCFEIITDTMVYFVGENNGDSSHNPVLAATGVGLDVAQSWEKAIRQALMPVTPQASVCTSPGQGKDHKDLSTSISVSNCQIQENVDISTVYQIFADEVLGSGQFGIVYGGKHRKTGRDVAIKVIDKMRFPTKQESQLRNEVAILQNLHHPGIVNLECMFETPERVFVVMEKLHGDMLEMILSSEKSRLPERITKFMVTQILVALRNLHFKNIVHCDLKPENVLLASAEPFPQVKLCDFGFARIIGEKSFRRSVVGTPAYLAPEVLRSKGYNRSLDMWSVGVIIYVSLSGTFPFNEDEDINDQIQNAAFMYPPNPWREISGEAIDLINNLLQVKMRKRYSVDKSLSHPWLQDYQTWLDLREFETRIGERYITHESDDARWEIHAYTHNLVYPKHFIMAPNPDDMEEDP
Settings: at 0.1 µM
Please reply with the bare figure in % and do not write the unit itself.

Solved entries:
1. c1ccc(COc2ccc(Nc3ncnc4ccc(-c5ccco5)cc34)cc2)cc1	1.12
2. CNC(=O)c1cncc(/C=C/c2ccccc2Cl)c1	0.25
3. CCN1CCC(CC(=O)Nc2n[nH]c3nnc(-c4cccc(F)c4F)cc23)CC1	1.54

Prompt: Please report the measured inhibition for CC(=O)NCc1cccc(C#Cc2cncnc2Nc2ccc(OCc3cccc(F)c3)c(Cl)c2)c1
Completion: 1.12

Prompt: Consider the molecule CC(C)(CO)CNC(=O)c1ccc2c(c1)/C(=N/Nc1ccc(S(N)(=O)=O)cc1)C(=O)N2 . State its measured inhibition.
Completion: 0.07

Prompt: Annotate the molecule Cc1ccc2c(-c3ccnc(Nc4ccccc4)n3)c(-c3ccc(F)cc3)nn2n1 with its measured inhibition.
Completion: 18.6

Prompt: Note inhibition for the molecule shown: CS(=O)(=O)CCNCc1ccc(-c2ccc3ncnc(Nc4ccc(OCc5ccccc5)c(C(F)(F)F)c4)c3c2)o1
Completion: 4.3

Prompt: Please give the documented inhibition of CCN(CC)S(=O)(=O)c1ccc(OC)c(Nc2ncc(-c3ccccc3)o2)c1
Completion: -0.55

Prompt: Give reported inhibition value for N#Cc1c(NC(=O)c2ccc(F)cc2)sc2c1CCCC2
Completion: 1.7

Prompt: Return value of inhibition for input CCc1nn2ncccc2c1-c1ccnc(NC2CC2)n1 , no commentary.
Completion: 1.73
